The origin of these recorded values is the supplement of paper PMC3334620.

measured-target: Abf1 (UniProt P14164)
Sequence: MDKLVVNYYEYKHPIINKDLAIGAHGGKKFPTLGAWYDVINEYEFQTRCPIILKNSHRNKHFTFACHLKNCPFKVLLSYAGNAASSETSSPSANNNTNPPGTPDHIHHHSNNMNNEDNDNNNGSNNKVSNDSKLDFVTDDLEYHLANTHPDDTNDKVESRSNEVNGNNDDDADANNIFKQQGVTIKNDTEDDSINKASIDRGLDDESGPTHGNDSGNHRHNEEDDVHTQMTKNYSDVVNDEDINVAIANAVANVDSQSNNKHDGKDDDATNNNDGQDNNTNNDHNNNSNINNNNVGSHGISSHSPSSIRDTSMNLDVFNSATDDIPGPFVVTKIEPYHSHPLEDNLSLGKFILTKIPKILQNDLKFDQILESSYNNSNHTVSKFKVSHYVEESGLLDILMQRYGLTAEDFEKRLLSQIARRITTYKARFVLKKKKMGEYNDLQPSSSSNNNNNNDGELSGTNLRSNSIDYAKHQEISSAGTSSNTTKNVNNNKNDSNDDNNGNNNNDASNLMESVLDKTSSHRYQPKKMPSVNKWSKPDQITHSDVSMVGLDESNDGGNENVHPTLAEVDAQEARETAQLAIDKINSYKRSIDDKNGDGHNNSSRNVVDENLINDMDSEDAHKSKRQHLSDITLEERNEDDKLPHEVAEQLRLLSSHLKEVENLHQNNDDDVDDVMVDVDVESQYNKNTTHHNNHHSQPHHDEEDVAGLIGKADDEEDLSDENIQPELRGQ
protocol-text: PBM E-score (8-mer binding enrichment) (E-score (-0.5 to 0.5)); higher = stronger / more preferred TF binding
test-conditions: protein concentration: 200 nM; construct: GST-full length
The full ranking holds about 33,000 sequences; the median of “E-score (-0.5 to 0.5)” is about -0.015, and the highest 2% start at about 0.3. Only a selection was taken, and the highest values are over-represented in it overall.
Here, each record is paired with measured PBM E-score data.
Enter a number only.

Worked cases, PBM E-score given:
AACAGCAC ... -0.13
GGGTGAAA ... 0.0485
ACGGGCGA ... -0.00147
ATTATACC ... 0.217
ACTCTGAC ... -0.0634
CTTGCATA ... 0.0552
CGGGCGGA ... -0.157
CGGTGAAA ... 0.186
CGTAATAG ... 0.112
ACCACGCT ... -0.0224

Proceeding to the next sequence to report its PBM E-score.
Quick check: PBM E-score of ACACGATC ?
0.25
